molecular target: acetylcholine receptor; test: SPR, peptide at 10 uM over immobilized acetylcholine receptor
Reported values of Binding affinity (RU) for individual entries
Report the figure in RU without appending any unit label.

As a guide, the following entries are already answered.
The binder KGRTKR [6mer-2-90] showed Binding affinity (RU) equal to 133

The binder RKACEK [6mer-1-1200] showed Binding affinity (RU) equal to 21

The binder RLYLRK [6mer-2-127] showed Binding affinity (RU) equal to 136

The binder KLQYRK [6mer-2-114] showed Binding affinity (RU) equal to 121

The binder KRIQKK [6mer-2-72] showed Binding affinity (RU) equal to 144

The binder RQFYRK [6mer-2-97] showed Binding affinity (RU) equal to 154

The binder RRQCRK [6mer-2-120] showed Binding affinity (RU) equal to 146

The binder KRRLKK [6mer-2-133] showed Binding affinity (RU) equal to 145

The binder KRYLKR [6mer-2-78] showed Binding affinity (RU) equal to 135

The binder KVQLRR [6mer-2-125] showed Binding affinity (RU) equal to 142

Others:
The binder KLIRRK [6mer-2-111] showed Binding affinity (RU) equal to 123

The binder RQRSRR [6mer-2-99] showed Binding affinity (RU) equal to 151

The binder KSFQRR [6mer-2-88] showed Binding affinity (RU) equal to 141

The binder KWRQRK [6mer-2-96] showed Binding affinity (RU) equal to 154

The binder KVYQKK [6mer-2-102] showed Binding affinity (RU) equal to 139
